Experiment: log P by HPLC on reversed-phase column (C18), EEC directive 79/831 Annex V.A8
Assay type: physicochemical
Conditions: reversed-phase HPLC column (C18), HPLC-MS data in the preparation text; HPLC reversed-phase C18, 43° C.; read-out: log P
Could you label it Satisfied if measured chromatographic logP is 2 or higher, and Not satisfied otherwise?

Input line: For this compound, is measured chromatographic logP 2 or higher? Cc1cc(C=O)cc(C(=O)O)c1N
Output line: Not satisfied

Input line: Check if chromatographic logP >= 2 (inclusive). Item: CC(C)Oc1cc(C(=O)O)n(-c2ncccc2Cl)n1
Output line: Not satisfied

Input line: Could you tell me if the measured chromatographic logP of CON=Cc1cc(C)c2nc(-c3cc(OC(F)F)nn3-c3ncccc3Cl)oc(=O)c2c1 reaches 2 or more?
Output line: Satisfied

Input line: Could you please find out whether COC(=O)c1cc(CF)nn1-c1ncccc1Cl has chromatographic logP that meets 2 or exceeds it?
Output line: Not satisfied

Input line: Please check the record CON=Cc1cc(C)c2nc(-c3cc(OCC(F)F)nn3-c3ncccc3Cl)oc(=O)c2c1 and state if its chromatographic logP is at or above 2.
Output line: Satisfied

Input line: API: above_or_equal(metric=chromatographic logP, cutoff=2) for item O=C(O)c1cc(CF)nn1-c1ncccc1Cl
Output line: Not satisfied

Input line: Kindly determine if chromatographic logP recorded for CCOc1cc(C(=O)O)n(-c2ncccc2Cl)n1 is above or exactly 2.
Output line: Not satisfied

Input line: Does chromatographic logP meet or surpass 2 for CCOC(=O)c1cc(OCC(F)F)nn1-c1ncccc1Cl ?
Output line: Satisfied

Input line: Given the entry O=C(O)c1cc(OCC(F)F)nn1-c1ncccc1Cl , answer whether its chromatographic logP meets or surpasses 2.
Output line: Not satisfied

Input line: Item CO/N=C/c1cc(C)c(N)c(C(=O)O)c1 with chromatographic logP of 2 or above?
Output line: Not satisfied

Input line: Form field: chromatographic logP at least 2? Entry: O=C(O)c1cc(OCc2ccc(C(F)(F)F)nc2)nn1-c1ncccc1Cl
Output line: Not satisfied
